molecular target: human full-length MKNK1 (Homo sapiens, UniProt Q9BUB5, T385D); construct: GST (N); purchased Carna Biosciences 02-145; host or cells: insect cells (baculovirus expression system); test: MKNK1 kinase high ATP assay (TR-FRET); type: biochemical; details: TR-FRET, 2 mM ATP (high ATP), 15 min preincubation with enzyme, 30 min reaction at 22° C.; read-out: MKNK1 IC50
Sequence (Q9BUB5 1-424 isoform Q9BUB5-2 T344D): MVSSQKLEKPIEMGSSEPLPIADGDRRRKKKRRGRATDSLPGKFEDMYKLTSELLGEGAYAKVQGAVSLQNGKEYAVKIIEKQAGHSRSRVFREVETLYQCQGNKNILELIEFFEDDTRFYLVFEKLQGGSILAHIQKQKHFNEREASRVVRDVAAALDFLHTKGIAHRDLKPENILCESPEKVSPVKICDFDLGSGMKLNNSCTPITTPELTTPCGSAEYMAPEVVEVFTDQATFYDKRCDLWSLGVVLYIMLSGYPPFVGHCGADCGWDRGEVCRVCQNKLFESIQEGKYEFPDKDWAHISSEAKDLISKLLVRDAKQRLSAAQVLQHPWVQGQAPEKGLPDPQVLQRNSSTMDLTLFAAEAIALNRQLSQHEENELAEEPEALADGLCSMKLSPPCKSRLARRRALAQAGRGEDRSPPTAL
endpointName: IC50 (nM)
Numbers only, in nM.

// worked examples, IC50 included
{"columns": ["structureNotation", "testedOn", "IC50 [nM]"],
 "data": [
  ["Cc1cc(Nc2ncnc3sc4c(c23)CCCC4)c(=O)n2c1C(=O)NC21CCCCC1", "human full-length MKNK1 (Homo sapiens, UniProt Q9BUB5, T385D)", 9.9],
  ["Cc1cc(Nc2ncnc3sc4c(c23)CC[C@H](C(=O)N2CC(C#N)C2)C4)c(=O)n2c1C(=O)NC21CCCCC1", "human full-length MKNK1 (Homo sapiens, UniProt Q9BUB5, T385D)", 1.1],
  ["Cc1cc(Nc2ncnc3sc4c(c23)CC[C@H](C(=O)N(C)C)C4)c(=O)n2c1C(=O)NC21CCCC1", "human full-length MKNK1 (Homo sapiens, UniProt Q9BUB5, T385D)", 0.7],
  ["C[C@@H]1CN(C(=O)[C@H]2CCc3c(sc4ncnc(Nc5cc(Cl)c6n(c5=O)C5(CCCCC5)NC6=O)c34)C2)CCN1C", "human full-length MKNK1 (Homo sapiens, UniProt Q9BUB5, T385D)", 0.2],
  ["Cc1cc(Nc2ncnc3sc4c(c23)CC[C@H](C(=O)N2CCC2)C4)c(=O)n2c1C(=O)NC21CCCC1", "human full-length MKNK1 (Homo sapiens, UniProt Q9BUB5, T385D)", 3.1],
  ["CC1(C)NC(=O)c2c(Cl)cc(Nc3ncnc4sc5c(c34)CC[C@H](C(=O)N3CC(C#N)C3)C5)c(=O)n21", "human full-length MKNK1 (Homo sapiens, UniProt Q9BUB5, T385D)", 0.2]
]}

Here is another compound to look at.
Which measured IC50 value corresponds to `Cc1cc(Nc2ncnc3sc4c(c23)CC[C@H](C(=O)N2C[C@H]3C[C@@H]2CO3)C4)c(=O)n2c1C(=O)NC21CS(=O)(=O)C1` ? 0.7

---

target: human full-length MKNK1 (Homo sapiens, UniProt Q9BUB5, T385D); construct: GST (N); purchased Carna Biosciences 02-145; host or cells: insect cells (baculovirus expression system); experiment: MKNK1 kinase high ATP assay (TR-FRET); format: biochemical; details: TR-FRET, 2 mM ATP (high ATP), 15 min preincubation with enzyme, 30 min reaction at 22° C.; read-out: MKNK1 IC50
endpointName: pIC50
Give bare numbers, as −log10 of the molar value.

// worked examples, pIC50 included
{"columns": ["structureNotation", "pIC50"],
 "data": [
  ["Cc1cc(Nc2ncnc3sc4c(c23)CC[C@H](C(=O)N2CC(N(C)C)C2)C4)c(=O)n2c1C(=O)NC2(C)C", 8.89],
  ["C[C@@H]1CN(C(=O)[C@H]2CCc3c(sc4ncnc(Nc5cc(Cl)c6n(c5=O)C5(CCC5)NC6=O)c34)C2)CCN1C", 10.00]
]}

Here is another molecule to look at.
Which measured pIC50 value corresponds to `Cc1cc(Nc2ncnc3sc4c(c23)CC[C@H](C(=O)N2C3CCC2CC(=O)C3)C4)c(=O)n2c1C(=O)NC21CCCCC1` ? 9.40

---

molecular target: human full-length MKNK1 (Homo sapiens, UniProt Q9BUB5, T385D); construct: GST (N); purchased Carna Biosciences 02-145; host or cells: insect cells (baculovirus expression system); assay: MKNK1 kinase high ATP assay (TR-FRET); format: biochemical; settings: TR-FRET, 2 mM ATP (high ATP), 15 min preincubation with enzyme, 30 min reaction at 22° C.; read-out: MKNK1 IC50
endpointName: pIC50
Answers are plain numbers, as −log10 of the molar value.

// worked examples, pIC50 included
{"columns": ["molecule", "pIC50"],
 "data": [
  ["Cc1cc(Nc2ncnc3sc4c(c23)CC[C@H](C(=O)N2CC[C@H](N(C)C)C2)C4)c(=O)n2c1C(=O)NC21CCCC1 [Example 41]", 8.92],
  ["Cc1cc(Nc2ncnc3sc4c(c23)CC[C@H](C(=O)N2CC(C#N)C2)C4)c(=O)n2c1C(=O)N[C@]21CC[C@@](O)(C(F)(F)F)CC1 [Example 82]", 8.82],
  ["Cc1cc(Nc2ncnc3sc4c(c23)CC[C@H](C(=O)N2CC[C@H](N(C)C)C2)C4)c(=O)n2c1C(=O)NC21CSC1 [Example 49]", 9.30],
  ["Cc1cc(Nc2ncnc3sc4c(c23)CC[C@H](C(=O)N2CC(NC(=O)OC(C)(C)C)C2)C4)c(=O)n2c1C(=O)NC21CCCCC1 [Example 7]", 8.38],
  ["O=C1NC2(CSC2)n2c1c(Cl)cc(Nc1ncnc3sc4c(c13)CC[C@H](C(=O)O)C4)c2=O [Example 101]", 8.74],
  ["Cc1cc(Nc2ncnc3sc4c(c23)CC[C@H](C(=O)N2CC(C#N)C2)C4)c(=O)n2c1C(=O)NC21CCCC1 [Example 39]", 8.48],
  ["Cc1cc(Nc2ncnc3sc4c(c23)CC[C@H](C(=O)N(C)C)C4)c(=O)n2c1C(=O)NC21CCC1 [Example 20]", 9.22],
  ["Cc1cc(Nc2ncnc3sc4c(c23)CC[C@H](C(=O)N2CC(C#N)C2)C4)c(=O)n2c1C(=O)NC21CCC1 [Example 22]", 9.30]
]}

Each of the following entries comes with a recorded value; kindly state pIC50 for each.
1. C[C@@H]1COCCN1C(=O)[C@H]1CCc2c(sc3ncnc(Nc4cc(Cl)c5n(c4=O)C(C)(C)NC5=O)c23)C1 [Example 117]
2. Cc1cc(Nc2ncnc3sc4c(c23)CC[C@H](C(=O)N2CC(N(C)C)C2)C4)c(=O)n2c1C(=O)N[C@]21CC[C@@](O)(C(F)(F)F)CC1 [Example 62]
3. O=C1NC2(CCC2)n2c1c(Cl)cc(Nc1ncnc3sc4c(c13)CC[C@H](C(=O)N1CCC1)C4)c2=O [Example 96]
4. C[C@@H]1COCCN1C(=O)[C@H]1CCc2c(sc3ncnc(Nc4cc(Cl)c5n(c4=O)C4(CCCCC4)NC5=O)c23)C1 [Example 79]
5. CN(C)[C@H]1CCN(C(=O)[C@H]2CCc3c(sc4ncnc(Nc5cc(Cl)c6n(c5=O)C5(CSC5)NC6=O)c34)C2)C1 [Example 105]
6. NC(=O)[C@H]1CCc2c(sc3ncnc(Nc4cc(Cl)c5n(c4=O)C4(CCCCC4)NC5=O)c23)C1 [Example 74]

9.40
8.19
10.00
9.52
10.00
9.05

Each of the following entries comes with a recorded value; kindly state pIC50 for each.
1. Cc1cc(Nc2ncnc3sc4c(c23)CC[C@H](C(=O)N2CCC2)C4)c(=O)n2c1C(=O)NC21CCC(F)(F)CC1 [Example 53]
2. Cc1cc(Nc2ncnc3sc4c(c23)CC[C@H](C(=O)N2CC(N(C)C)C2)C4)c(=O)n2c1C(=O)NC21CS(=O)(=O)C1 [Example 69]
3. Cc1cc(Nc2ncnc3sc4c(c23)CC[C@H](C(=O)N2C[C@H]3C[C@@H]2CO3)C4)c(=O)n2c1C(=O)NC21CCCCC1 [Example 8]
4. Cc1cc(Nc2ncnc3sc4c(c23)CC[C@H](C(=O)N(C)C)C4)c(=O)n2c1C(=O)NC21CCCCC1 [Example 2]
5. O=C1NC2(CCC2)n2c1c(Cl)cc(Nc1ncnc3sc4c(c13)CC[C@H](C(=O)O)C4)c2=O [Example 93]

1: 7.87; 2: 8.70; 3: 9.22; 4: 9.70; 5: 8.89

Each of the following entries comes with a recorded value; kindly state pIC50 for each.
1. Cc1cc(Nc2ncnc3sc4c(c23)CC[C@H](C(=O)N2CCN(C)[C@H](C)C2)C4)c(=O)n2c1C(=O)NC21CCC1 [Example 25]
2. Cc1cc(Nc2ncnc3sc4c(c23)CC[C@H](C(=O)N2CCC2)C4)c(=O)n2c1C(=O)NC21CS(=O)(=O)C1 [Example 67]
3. Cc1cc(Nc2ncnc3sc4c(c23)CC[C@H](C(=O)N2CCC2)C4)c(=O)n2c1C(=O)NC2(C)C [Example 28]
4. Cc1cc(Nc2ncnc3sc4c(c23)CC[C@H](C(=O)N(C)C)C4)c(=O)n2c1C(=O)NC21CCC(F)(F)CC1 [Example 52]
5. Cc1cc(Nc2ncnc3sc4c(c23)CC[C@H](C(=O)N2CCN(C)[C@H](C)C2)C4)c(=O)n2c1C(=O)NC21CCC(F)(F)CC1 [Example 57]

[9.40, 8.70, 9.00, 9.22, 8.85]
